Cited source for all entries: patent US20190119282A1

- testSystem: PAR2 (HT-29 cells, SLIGKV activation) (Homo sapiens)
- Construct: host or cells: HT-29 cells
- Sequence (P55085 26-397): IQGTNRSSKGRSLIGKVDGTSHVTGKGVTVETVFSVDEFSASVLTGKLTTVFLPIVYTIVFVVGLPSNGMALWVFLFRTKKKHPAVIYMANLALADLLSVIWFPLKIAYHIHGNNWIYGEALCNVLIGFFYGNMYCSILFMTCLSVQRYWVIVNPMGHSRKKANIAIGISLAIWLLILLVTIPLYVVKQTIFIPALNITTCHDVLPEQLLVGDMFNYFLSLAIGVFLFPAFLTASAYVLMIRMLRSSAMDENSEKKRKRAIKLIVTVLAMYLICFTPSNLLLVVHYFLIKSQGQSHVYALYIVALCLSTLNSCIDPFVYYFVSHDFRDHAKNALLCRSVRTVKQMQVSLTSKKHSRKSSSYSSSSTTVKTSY
- methodSummary: Ca FLIPR TETRA assay, ANTAGONIST mode, stimulation with 8 μM SLIGKV
- Format: cell-based
- assaySetup: HT-29 cells, antagonist mode, stimulation with 8 μM SLIGKV
Please go through the items and note down their pIC50.
Here pIC50 is given on a logarithmic scale as minus log10 of the concentration in mol/L.

Ask | Param readout= pIC50; system= PAR2 (HT-29 cells, SLIGKV activation) (Homo sapiens); entry= CC(C)c1cc(-c2ccc(F)c(F)c2)nn2cc(C(=O)N3CCN(C(=O)[C@H]4C[C@@](O)(C(F)(F)F)C4)CC3(C)C)nc12 ; returns value.
Reply | 8.51

Ask | Please give the result for CC(C)c1cc(-c2ccc(F)c(Cl)c2)nn2cc(C(=O)N3CCN(C(=O)[C@H]4CC[C@H](C(=O)O)CC4)CC3(C)C)nc12 too.
Reply | 7.26

Ask | Please give the result for COC(=O)C1(C)CCC(C(=O)N2CCN(C(=O)c3cn4nc(-c5ccc(F)cc5)cc(C(C)(C)C)c4n3)C(C)(C)C2)CC1 (stereo not drawn) too.
Reply | 9.22

Ask | Please give the result for Cc1ccc(-c2cc(C(C)C)c3nc(C(=O)N4CCN(C(=O)C5CC(C)(O)C5)CC4(C)C)cn3n2)cc1F (stereo not drawn) too.
Reply | 8.66

Ask | Please give the result for Cc1nc(N2CCN(C(=O)c3cn4nc(-c5ccc(F)c(C)c5)cc(C(C)C)c4n3)C(C)(C)C2=O)c[nH]1 too.
Reply | 7.70

Ask | Please give the result for CC(C)(C)c1cc(-c2ccc(F)cc2)nn2cc(C(=O)N3CCN(C(=O)c4ccn[nH]c4=O)CC3(C)C)nc12 too.
Reply | 7.55
